Experiment Notes: JC-1 mitochondrial potential readout, lung cancer cells – cell-based, A549, JC-1 fluorescence, basal, 24 h, 100 nL, profiling panel (AID 1138);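 note: A549 lung adenocarcinoma cells under basal conditions with no added stimulus; test concentration not given here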
Condition Set: higher = more signal

{"columns": ["Molecule", "z-score"],
 "data": [
  ["COC(=O)[C@@]1(Cc2ccc(OC)cc2)[C@H]2c3cc(C(=O)N4CCCC4)n(C[C@H](O)CO)c3C[C@H]2CN1C(=O)c1ccccc1", 0.605],
  ["COCCOC(=O)N1C(=O)[C@@]2(c3ccccc31)[C@H](C(=O)N1CCCCCCC1)[C@H]1C(=O)O[C@H](c3ccccc3)[C@H](c3ccccc3)N1[C@@H]2c1ccccc1OCCO", -0.647],
  ["C=CCC(OC(C)=O)[C@@H]1[C@@H](N(Cc2cc3ccccc3o2)C(=O)c2cccc3ccccc23)c2cc(OCCCO)ccc2N1C(=O)Cc1ccc2ccccc2c1 (some centres undefined)", -0.274],
  ["CCOC(=O)N1C(c2ccc(OCCCO)cc2)=NC(C(=O)OC)N1C(=O)OCC (centres undefined)", -0.541],
  ["O=C1C[C@@](C(=O)O)(c2ccc([N+](=O)[O-])cc2)[C@@H](c2ccc(CO)cc2I)N1C1CCCCC1", -0.706],
  ["C=C(C(=O)CC[C@H](OC(=O)c1cccnc1)c1ccccc1OCCO)C(C)C", 0.0404],
  ["C=C(COC)C(=O)CC[C@H](OC(=O)c1cccnc1)c1ccccc1OCCO", -0.0406],
  ["NC(=O)NCC#Cc1ccc2c(c1)[C@]1(C(=O)N2)[C@H](C(=O)NC[C@H](O)c2ccccc2)[C@H]2C(=O)O[C@H](c3ccccc3)[C@H](c3ccccc3)N2[C@@H]1c1ccccc1OCCO", -1.17],
  ["CO[C@H]1O[C@H](CO)[C@@H](OC(=O)Nc2ccc(C(F)(F)F)cc2)[C@H](OC(=O)Nc2ccccc2)[C@@H]1OC(=O)Nc1ccccc1", -0.191],
  ["C=CCOC(=O)[C@H]1[C@@H]2C(=O)O[C@@H](c3ccccc3)[C@@H](c3ccccc3)N2[C@@H](c2ccc(OCCOC(=O)[C@H]3C[C@H]4C(=O)N[C@@H](CCCC[N+](C)(C)C)C(=O)N4[C@H]3c3ccc(O)cc3)cc2)[C@]12C(=O)Nc1ccccc12", 0.193],
  ["O=[N+]([O-])c1ccc(C[n+]2ccc(CCCO)cc2)o1", -0.506],
  ["[N-]=[N+]=NCc1ccccc1C[C@]1(C(=O)NCc2ccccc2)COC(c2ccc(OCCCO)cc2)=N1", -0.221],
  ["[N-]=[N+]=NCc1ccccc1[C@H]1OC(c2ccc(OCCCO)cc2)=N[C@@]1(Cc1ccccc1)C(=O)O", -0.0378],
  ["COc1ccccc1CN1C(=O)c2ccccc2[C@](Cc2ccccc2I)(C(=O)NCc2ccccc2)[C@@H]1c1ccc(CO)cc1", 0.109]
]}
